target: Bile acid receptor (Homo sapiens, UniProt Q96RI1); assay: Agonist activity at FXR (unknown origin)
Sequence (Q96RI1 whole entry): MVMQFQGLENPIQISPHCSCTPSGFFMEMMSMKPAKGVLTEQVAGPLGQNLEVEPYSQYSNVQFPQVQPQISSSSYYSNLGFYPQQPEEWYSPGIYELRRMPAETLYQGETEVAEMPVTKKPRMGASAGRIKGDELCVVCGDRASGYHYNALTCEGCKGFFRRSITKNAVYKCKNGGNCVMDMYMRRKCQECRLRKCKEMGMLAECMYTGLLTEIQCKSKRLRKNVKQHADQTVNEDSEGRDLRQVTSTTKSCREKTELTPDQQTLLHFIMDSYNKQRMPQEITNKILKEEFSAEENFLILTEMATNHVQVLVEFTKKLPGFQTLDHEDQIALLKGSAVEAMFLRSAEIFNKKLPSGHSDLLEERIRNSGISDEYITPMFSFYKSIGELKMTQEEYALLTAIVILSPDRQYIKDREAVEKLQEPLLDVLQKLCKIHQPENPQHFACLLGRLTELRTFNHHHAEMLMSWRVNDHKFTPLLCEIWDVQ
pEC50: −log10 of the molar value.
Listing of recorded pEC50 by entry.

Past entries and their recorded results:
stdin: Report pEC50, nothing else, for this compound: Cc1cc(NS(=O)(=O)N2[C@@H]3CC[C@H]2C[C@@H](OCc2c(-c4c(Cl)cccc4Cl)noc2C2CC2)C3)ccc1C(=O)O
stdout: > 7.30

stdin: Give the reported pEC50 for this compound. O=C(O)c1ccc(-c2nc(N3[C@@H]4CC[C@H]3C[C@@H](OCc3c(-c5c(Cl)cccc5Cl)noc3C3CC3)C4)no2)cc1F
stdout: > 7.30

Shifting focus to the compound that follows.
stdin: # return recorded pEC50 for entry O=C(O)c1ccc(-c2nc(N3[C@@H]4CC[C@H]3C[C@@H](OCc3c(-c5c(Cl)cccc5Cl)noc3C3CC3)C4)no2)cc1
stdout: > 7.30
